Acetylcholine-binding protein (Lymnaea stagnalis, UniProt P58154) pKi data
Sequence (P58154 whole entry): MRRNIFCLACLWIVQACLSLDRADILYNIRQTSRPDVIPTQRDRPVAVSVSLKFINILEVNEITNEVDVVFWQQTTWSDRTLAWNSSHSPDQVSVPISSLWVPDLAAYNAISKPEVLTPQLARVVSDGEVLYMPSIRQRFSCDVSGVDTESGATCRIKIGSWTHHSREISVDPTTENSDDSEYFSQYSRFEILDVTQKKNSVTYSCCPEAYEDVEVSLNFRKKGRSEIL
In textbook form, pKi equals minus log to base ten of the concentration in mol/L.

Sample answers from the record:
{"Compound": "C[N+]1(CCc2ccccc2)[C@@H]2CC[C@H]1C[C@@H](OC(=O)c1ccccc1)C2 (some centres not stated)", "pKi": 7.50}
{"Compound": "O=C(O[C@@H]1C[C@H]2CC[C@@H](C1)N2CC(O)c1cc(O)cc(O)c1)c1ccccc1 (some centres not stated)", "pKi": 5.70}

Item C[N+]1(C[C@H](O)c2ccccc2)[C@@H]2CC[C@H]1C[C@@H](OC(=O)c1ccccc1)C2 (some centres not stated) was tested on Acetylcholine-binding protein (Lymnaea stagnalis, UniProt P58154); the reported pKi is 6.90

Noted pKi for O=C(O[C@H]1C[C@H]2CC[C@@H](C1)N2C[C@@H](O)c1ccccc1)c1ccccc1 , tested on Acetylcholine-binding protein (Lymnaea stagnalis, UniProt P58154): 5.90

Measured pKi (Acetylcholine-binding protein (Lymnaea stagnalis, UniProt P58154)), entry O=C(O[C@@H]1C[C@H]2CC[C@@H](C1)N2CCc1ccccc1)c1ccccc1 : 6.40

// pKi (Acetylcholine-binding protein (Lymnaea stagnalis, UniProt P58154)) for O=C(O[C@H]1C[C@H]2CC[C@@H](C1)N2CC(O)c1ccccc1)c1ccccc1 (mixture of isomers) = 6.20

Entry c1ccc2c(c1)CCc1ccccc1C2O[C@H]1C[C@H]2CC[C@@H](C1)N2 : pKi on Acetylcholine-binding protein (Lymnaea stagnalis, UniProt P58154) = 6.00
